The origin of these recorded values is ChEMBL document CHEMBL4715794.

- EXPERIMENTAL_TARGET: Stimulator of interferon genes protein (Mus musculus) (UniProt Q3TBT3)
- Sequence (Q3TBT3 whole entry): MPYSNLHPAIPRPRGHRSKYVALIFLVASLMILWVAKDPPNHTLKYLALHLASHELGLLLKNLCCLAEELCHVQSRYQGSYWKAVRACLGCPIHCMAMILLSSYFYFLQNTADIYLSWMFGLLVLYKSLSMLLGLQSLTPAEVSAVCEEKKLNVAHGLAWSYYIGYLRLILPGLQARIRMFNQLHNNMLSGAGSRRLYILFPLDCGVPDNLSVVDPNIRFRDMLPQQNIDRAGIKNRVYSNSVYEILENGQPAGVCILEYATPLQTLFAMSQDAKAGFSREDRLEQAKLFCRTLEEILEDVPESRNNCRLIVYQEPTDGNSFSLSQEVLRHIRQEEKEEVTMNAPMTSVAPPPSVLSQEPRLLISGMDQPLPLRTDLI
- ASSAY: Activation of STING in mouse RAW-Lucia ISG cells assessed as induction of type I IFNs stimulation by measuring induction of IRF pathway incubated for 48 hrs by luciferase reporter gene assay relative to 2',3'-cGAMP
- Assay type: cell-based
- CONDITION_SET: filed as activator
Entries and their Emax values follow.
Number only, in %; omit the unit.

Recorded Emax, per entry:
[
  {
    "COMPOUND": "Nc1ncnc2c1ncn2[C@H]1C[C@@H]2OP(=O)(S)OC[C@H]3O[C@@H](n4cnc5c(O)ncnc54)[C@H](F)[C@@H]3OP(=O)(S)OC[C@H]2O1 (stereo not given in full)",
    "Emax / %": 83
  },
  {
    "COMPOUND": "Nc1ncnc2c1ncn2[C@@H]1O[C@@H]2COP(=O)(S)O[C@H]3[C@@H](O)[C@H](n4cnc5c(O)ncnc54)O[C@@H]3COP(=O)(S)O[C@H]2[C@H]1O (stereo not given in full)",
    "Emax / %": 115
  },
  {
    "COMPOUND": "Nc1ncnc2c1ncn2[C@@H]1O[C@@H]2COP(=O)(O)O[C@H]3[C@@H](O)[C@H](n4cnc5c(O)ncnc54)O[C@@H]3COP(=O)(O)O[C@H]2[C@H]1O",
    "Emax / %": 107
  },
  {
    "COMPOUND": "Nc1ncnc2c1ncn2[C@@H]1O[C@@H]2COP(=O)(S)O[C@H]3[C@@H](F)[C@H](n4cnc5c(O)ncnc54)O[C@@H]3COP(=O)(S)O[C@H]2[C@H]1F (stereo not given in full)",
    "Emax / %": 104
  }
]

Moving on to another compound below.
Emax in this record for `Nc1ncnc2c1ncn2[C@@H]1O[C@@H]2COP(=O)(O)O[C@H]3[C@@H](O)[C@H](n4cnc5c(O)ncnc54)O[C@@H]3COP(=O)(O)O[C@@H]1[C@@H]2O` : 85

* * *

Entries and their half-life at 7 ug values follow.
- EXPERIMENTAL_TARGET: Nuclease P1 (Penicillium citrinum)
- Sequence (P24289 whole entry): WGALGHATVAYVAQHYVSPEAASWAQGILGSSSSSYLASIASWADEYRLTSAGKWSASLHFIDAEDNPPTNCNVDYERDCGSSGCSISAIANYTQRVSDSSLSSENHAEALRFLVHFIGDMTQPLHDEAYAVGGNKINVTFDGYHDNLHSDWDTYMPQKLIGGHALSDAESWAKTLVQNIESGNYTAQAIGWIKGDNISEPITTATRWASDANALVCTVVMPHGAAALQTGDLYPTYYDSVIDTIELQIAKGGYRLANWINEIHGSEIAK
- ASSAY: Stability in presence of nuclease P1 assessed as half life at 7 ug incubated for 2 hrs by HPLC analysis
- Type: ADME
- CONDITION_SET: nuclease P1 (isolated enzyme), dose 7 µg
Hey, just the number and the unit after it is fine.

[
  {
    "CHEMICAL_STRING": "Nc1ncnc2c1ncn2[C@H]1C[C@@H]2OP(=O)(O)OC[C@H]3O[C@@H](n4cnc5c(O)ncnc54)C[C@@H]3OP(=O)(O)OC[C@H]2O1",
    "EXPERIMENTAL_TARGET": "Nuclease P1 (Penicillium citrinum)",
    "RECORDED_MEASUREMENT": "5.7 min"
  },
  {
    "CHEMICAL_STRING": "Nc1ncnc2c1ncn2[C@@H]1O[C@@H]2COP(=O)(O)O[C@H]3[C@@H](O)[C@H](n4cnc5c(O)ncnc54)O[C@@H]3COP(=O)(O)O[C@H]2[C@H]1O",
    "EXPERIMENTAL_TARGET": "Nuclease P1 (Penicillium citrinum)",
    "RECORDED_MEASUREMENT": "23.1 min"
  }
]

Moving on to another compound below.
half-life at 7 ug in this record for `Nc1ncnc2c1ncn2[C@@H]1O[C@@H]2COP(=O)(O)O[C@@H]3[C@H](O)[C@@H](COP(=O)(O)O[C@H]2[C@H]1O)O[C@H]3n1cnc2c(=O)[nH]cnc21` : 7.1 min
